molecular target: Serine/threonine-protein phosphatase PP1-alpha catalytic subunit (Homo sapiens) (UniProt P62136); assay: NVS_ENZ_hPPP1CA: NovaScreen (NVS) Enzymatic Assay for human Protein Phosphatase 1 Aatalytic subunit Alpha (PPP1CA) (AID 2283200)
Sequence (P62136 whole entry, looked up): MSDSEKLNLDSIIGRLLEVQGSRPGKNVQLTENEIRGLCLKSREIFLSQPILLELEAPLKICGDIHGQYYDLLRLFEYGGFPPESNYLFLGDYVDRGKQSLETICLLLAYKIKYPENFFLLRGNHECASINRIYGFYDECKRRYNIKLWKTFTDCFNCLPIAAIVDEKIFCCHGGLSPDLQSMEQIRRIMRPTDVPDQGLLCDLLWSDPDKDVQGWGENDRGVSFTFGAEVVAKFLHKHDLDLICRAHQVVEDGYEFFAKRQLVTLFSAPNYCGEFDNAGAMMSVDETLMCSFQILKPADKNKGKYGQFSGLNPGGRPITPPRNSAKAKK
Records with an inconclusive call do not appear. Activity calls are given as the source filed them. The calls were made as follows: active = hit-call score of the fitted dose curve at least 0.9, where 1 is the maximum; inconclusive = response in the unintended direction; inactive = score below 0.9.
measurement_kind: AC50

[[record]]
compound = "Clc1ccc(C(c2ccccc2Cl)C(Cl)(Cl)Cl)cc1 (centres undefined)"
recorded_value = "inactive"

[[record]]
compound = "Cc1cccc([N+](=O)[O-])c1"
recorded_value = "inactive"

[[record]]
compound = "O=C(O)C(F)(F)C(F)(F)C(F)(F)C(F)(F)C(F)(F)C(F)(F)C(F)(F)C(F)(F)C(F)(F)F"
recorded_value = "43.3 µM (active)"

[[record]]
compound = "Cc1cc(-c2ccc(N)c(C)c2)ccc1N"
recorded_value = "inactive"


----------
test: APR_HepG2_MicrotubuleCSK_72hr: Apredica 72-hour HepG2 Assay for Microtubule CSK Stabilty (AID 2282919); conditions: HepG2 microtubule cytoskeleton, high-content imaging, actives raise or lower the signal
Activity calls are given as the source filed them. Rule for the calls: active = hit-call score of the fitted dose curve at least 0.9, where 1 is the maximum; inactive = score below 0.9.
The categories you may choose from are active, inactive

Please review the following examples before continuing.
[[record]]
compound = "CCC(=O)O[C@H]1CC[C@H]2[C@@H]3CCC4=CC(=O)CC[C@]4(C)[C@H]3CC[C@]12C"
category = "active"

[[record]]
compound = "CC(C)(c1ccccc1)c1ccc(O)cc1"
category = "inactive"


Input: Hi team, can someone confirm the assay call for CO/C=C(/C(=O)OC)c1ccccc1COc1cccc(C(F)(F)F)n1 ?
Output: inactive

Input: Okay, and O=S(=O)(O)C(F)(F)C(F)(F)C(F)(F)C(F)(F)F ?
Output: inactive

Input: Then this compound: CCNc1nc(NC(C)C)nc(SC)n1
Output: inactive

Input: Request: CC1=C2C[C@H]3[C@@H](CC=C4C[C@@H](O)CC[C@@]43C)[C@@H]2CC[C@]12O[C@@H]1C[C@H](C)CN[C@H]1[C@H]2C
Output: inactive

Input: COS(=O)(=O)OC , same question.
Output: inactive

----------
experiment: CCTE_Shafer_MEA_acute_synchrony_index: CCTE's Neural Acute Assay for Synchrony, Shafer Lab (AID 2284027);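 also: network synchrony index of spontaneous spiking in primary rat cortical neurons on MEAs; fitted for loss of signal so actives lower synchrony relative to DMSO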
Activity calls are given as the source filed them. How the source made its calls: active means hit-call score of the fitted dose curve at least 0.9, where 1 is the maximum; inactive means score below 0.9.
Result category, one only: active, inactive

Below are worked cases with known answers.
[[record]]
molecule = "CCCCCCCCCc1ccc(O)cc1"
category = "active"

[[record]]
molecule = "ClC(Cl)=C(c1ccc(Cl)cc1)c1ccc(Cl)cc1"
category = "inactive"

[[record]]
molecule = "CC#Cc1cc(C)nc(Nc2ccccc2)n1"
category = "active"

[[record]]
molecule = "c1ccc(-c2ccccc2)cc1"
category = "inactive"

[[record]]
molecule = "ClC1=C(Cl)[C@]2(Cl)[C@@H]3[C@@H]4C[C@@H]([C@H]5O[C@@H]45)[C@@H]3[C@@]1(Cl)C2(Cl)Cl"
category = "active"


Input: Outcome logged for O=C(O)C(F)(F)C(F)(F)C(F)(F)C(F)(F)C(F)(F)F in this assay:
Output: inactive

Input: Follow-up item: CCCN(CCC)N=O
Output: inactive

Input: Next: CC(C)C(=O)OCC(C)(C)C(OC(=O)C(C)C)C(C)C (stereo not drawn)
Output: inactive

Input: Okay, and CCCCCCCCCC[N+](C)(C)CCCCCCCCCC ?
Output: active

Input: Entry to check: ClC1=C(Cl)[C@]2(Cl)[C@@H]3[C@@H](Cl)[C@H]4O[C@H]4[C@@H]3C1(Cl)C2(Cl)Cl
Output: active

Input: Then what about the molecule ClC1=C(Cl)[C@]2(Cl)[C@@H]3[C@H]4C[C@H]([C@@H]5O[C@H]45)[C@@H]3[C@@]1(Cl)C2(Cl)Cl ?
Output: active

Input: And for CCC(C)(CC)c1cc(NC(=O)c2c(OC)cccc2OC)on1 ?
Output: inactive
